Test system: Staphylococcus lugdunensis
Assay: Antibacterial activity against coagulase-negative Staphylococcus lugdunensis obtained from complicated skin and skin structure infections by agar dilution method
Format: functional
measured_metric: log10 of MIC50 (log10 of the value in µg/mL)
The common logarithm of MIC50 in µg/mL is what is listed.

log10 of MIC50 reported for this compound CC(=O)NC[C@H]1CN(c2ccc(N3CCOCC3)c(F)c2)C(=O)O1 [LINEZOLID] : 0.00

Entry Cc1onc(-c2ccccc2)c1C(=O)N[C@@H]1C(=O)N2[C@@H]1SC(C)(C)[C@@H]2C(=O)O [OXACILLIN] — recorded log10 of MIC50 = -0.30

The compound listed as CC[C@H]1OC(=O)[C@H](C)[C@@H](O[C@H]2C[C@@](C)(OC)[C@@H](O)[C@H](C)O2)[C@H](C)[C@@H](O[C@@H]2O[C@H](C)C[C@H](N(C)C)[C@H]2O)[C@](C)(O)C[C@@H](C)C(=O)[C@H](C)[C@@H](O)[C@]1(C)O [ERYTHROMYCIN] has a reported log10 of MIC50 of -0.60

Record CN[C@H](CC(C)C)C(=O)N[C@H]1C(=O)N[C@@H](CC(N)=O)C(=O)N[C@H]2C(=O)N[C@H]3C(=O)N[C@H](C(=O)N[C@H](C(=O)O)c4cc(O)cc(O)c4-c4cc3ccc4O)[C@H](O)c3ccc(c(Cl)c3)Oc3cc2cc(c3O[C@@H]2O[C@H](CO)[C@@H](O)[C@H](O)[C@H]2O[C@H]2C[C@](C)(N)[C@H](O)[C@H](C)O2)Oc2ccc(cc2Cl)[C@H]1O [VANCOMYCIN] , field log10 of MIC50: 0.00

Field log10 of MIC50 (entry C[C@H]1COc2c(N3CCN(C)CC3)c(F)cc3c(=O)c(C(=O)O)cn1c23.C[C@H]1COc2c(N3CCN(C)CC3)c(F)cc3c(=O)c(C(=O)O)cn1c23.O [LEVOFLOXACIN] ) reads -0.92

Item: Nc1nc(/C(=N/O)C(=O)N[C@@H]2C(=O)N3C(C(=O)O)=C(/C=C4\CCN([C@@H]5CCNC5)C4=O)CS[C@H]23)ns1 [CEFTOBIPROLE] | log10 of MIC50: -0.30

Given item CCC[C@@H]1C[C@@H](C(=O)N[C@@H]([C@H]2O[C@H](SC)[C@H](O)[C@@H](O)[C@H]2O)[C@H](C)Cl)N(C)C1 [CLINDAMYCIN] , the value recorded as its log10 of MIC50 is -1.22
